- Assay: Selectivity ratio of Ki for delta opioid receptor in mouse whole brain without cerebellum to Ki for kappa opioid receptor in guinea pig cerebellum
Recorded endpoint: Ratio Ki

CN1CC[C@]23c4c5ccc(O)c4O[C@H]2[C@]2(CC[C@@]3(O)[C@H]1C5)O[C@@H]1N3[C@@H](OC1(C)C)C(C)(C)O[C@H]32: < 0.0098
Oc1ccc2c3c1O[C@H]1[C@]4(CC[C@@]5(O)[C@@H](C2)N(Cc2ccccc2)CC[C@]315)O[C@H]1CO[C@H]2CO[C@@H]4N21: < 0.084

The value of Ratio Ki measured for the compound "Oc1ccc2c3c1O[C@H]1[C@]4(CC[C@@]5(O)[C@@H](C2)N(CC2CC2)CC[C@]315)O[C@H]1CO[C@H]2CO[C@@H]4N21" turned out to be 13.2
